# test_target: T1, recombinant human IL-6 (human, UniProt P05231 30-212)
# T1 construct: Flowed in solution over the captured antibodies
# T1 sequence (P05231 30-212 limits assumed): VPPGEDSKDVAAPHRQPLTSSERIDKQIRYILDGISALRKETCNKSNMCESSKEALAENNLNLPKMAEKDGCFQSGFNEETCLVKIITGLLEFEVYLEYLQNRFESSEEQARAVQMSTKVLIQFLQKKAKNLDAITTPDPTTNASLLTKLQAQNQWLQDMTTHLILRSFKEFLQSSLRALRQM
# experimental_protocol: SPR (Biacore), purified IgG on Protein A, 37 C
Lab note - cut at 800000 M⁻¹ s⁻¹ for kon: 1.0 if strictly below, 0.0 if not.

binder	assigned_label
anti-IL-6 antibody, heavy chain WT, light chain A25T (antibody, IgG1, V domains shown, Full IgG1 tested; V domains derived as in m2) VH: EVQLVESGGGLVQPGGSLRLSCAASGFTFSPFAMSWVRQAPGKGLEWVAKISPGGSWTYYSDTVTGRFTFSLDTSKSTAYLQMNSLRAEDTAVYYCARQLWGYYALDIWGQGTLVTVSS VL: DIQLTQSPSSLSASVGDRVTITCSTSISVSYMYWYQQKPGKAPKLLIYDMSNLASGVPSRFSGSGSGTDFTLTISSLQPEDFATYYCMQWSGYPYTFGQGTKVEIK	0.0
anti-IL-6 antibody, heavy chain W57F, light chain WT (antibody, IgG1, V domains shown, Full IgG1 tested; V domains derived as in m2) VH: EVQLVESGGGLVQPGGSLRLSCAASGFTFSPFAMSWVRQAPGKGLEWVAKISPGGSFTYYSDTVTGRFTFSLDTSKSTAYLQMNSLRAEDTAVYYCARQLWGYYALDIWGQGTLVTVSS VL: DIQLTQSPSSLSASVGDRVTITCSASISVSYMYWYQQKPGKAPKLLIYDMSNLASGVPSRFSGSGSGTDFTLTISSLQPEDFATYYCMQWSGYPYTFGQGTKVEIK	0.0

In the record for anti-IL-6 antibody, heavy chain F32G, light chain WT (antibody, IgG1, V domains shown, Full IgG1 tested; V domains derived as in m2) VH: EVQLVESGGGLVQPGGSLRLSCAASGFTFSPGAMSWVRQAPGKGLEWVAKISPGGSWTYYSDTVTGRFTFSLDTSKSTAYLQMNSLRAEDTAVYYCARQLWGYYALDIWGQGTLVTVSS VL: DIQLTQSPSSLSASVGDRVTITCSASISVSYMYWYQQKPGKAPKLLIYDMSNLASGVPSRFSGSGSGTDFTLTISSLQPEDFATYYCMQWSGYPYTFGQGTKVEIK , is kon less than 800000 M⁻¹ s⁻¹?
1.0

In the record for anti-IL-6 antibody, heavy chain F29Y, light chain WT (antibody, IgG1, V domains shown, Full IgG1 tested; V domains derived as in m2) VH: EVQLVESGGGLVQPGGSLRLSCAASGFTYSPFAMSWVRQAPGKGLEWVAKISPGGSWTYYSDTVTGRFTFSLDTSKSTAYLQMNSLRAEDTAVYYCARQLWGYYALDIWGQGTLVTVSS VL: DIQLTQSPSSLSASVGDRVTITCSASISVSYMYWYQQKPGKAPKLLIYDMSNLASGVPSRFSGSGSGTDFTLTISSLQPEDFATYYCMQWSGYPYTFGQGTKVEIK , is kon less than 800000 M⁻¹ s⁻¹?
0.0
